Molecular target: His tagged PTPN2 (TC45) protein (Homo sapiens, UniProt P17706)
Sequence (P17706 with tags, fused parts or gaps isoform P17706-2): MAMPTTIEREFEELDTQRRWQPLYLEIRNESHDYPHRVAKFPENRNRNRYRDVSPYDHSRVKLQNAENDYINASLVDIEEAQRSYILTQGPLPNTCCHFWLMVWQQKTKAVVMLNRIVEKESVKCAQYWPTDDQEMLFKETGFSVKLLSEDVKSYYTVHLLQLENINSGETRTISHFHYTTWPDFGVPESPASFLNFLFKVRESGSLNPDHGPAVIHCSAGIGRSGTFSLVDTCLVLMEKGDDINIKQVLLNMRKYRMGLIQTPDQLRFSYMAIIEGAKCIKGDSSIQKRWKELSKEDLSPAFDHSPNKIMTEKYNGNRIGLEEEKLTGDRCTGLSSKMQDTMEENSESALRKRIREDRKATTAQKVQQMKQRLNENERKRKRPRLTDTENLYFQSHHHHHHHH
measurement_name: IC50

Data request: Supply measured IC50 of C[C@@H](O)CCN[C@@H]1CCc2cc(O)c(N3CC(=O)NS3(=O)=O)c(F)c2C1 (single isomer, unassigned) in your reply.
Data returned: 1 to 10 nM

Data request: Supply measured IC50 of CC(O)CCOC(=O)N1CCc2cc(O)c(N3CC(=O)NS3(=O)=O)c(F)c2C1 (stereo not drawn) in your reply.
Data returned: 1 to 10 nM

Data request: Supply measured IC50 of CC(C)[C@@H]1CN(C2CCc3cc(O)c(N4CC(=O)NS4(=O)=O)c(F)c3C2)CCO1 (stereo partly drawn) in your reply.
Data returned: 10 to 100 nM
